Details: human, 10 μM
readout_kind: Plasma Stability 240 min hum (%)
Give just the numeric value; % need not be written.

[[record]]
mol = "CN(C)CC(=O)N[C@H]1C[C@H]2COc3ccc(F)cc3C(=O)N(C)[C@H](C(=O)NCCc3c[nH]c4ccccc34)CCC(=O)N(C)CC(=O)N2C1"
readout_kind = "Plasma Stability 240 min hum"
readout_number = 95

[[record]]
mol = "CN1C[C@H](NC(=O)OCc2ccccc2)C(=O)N(C)CC(=O)N2C[C@@H](NC(=O)OC(C)(C)C)C[C@H]2COc2cncc(c2)C1=O"
readout_kind = "Plasma Stability 240 min hum"
readout_number = 95

[[record]]
mol = "CC(=O)N[C@H]1C[C@H]2COc3ccc(F)cc3C(=O)N(C)[C@H](C(=O)N3CCCC3)CCC(=O)N(C)CC(=O)N2C1"
readout_kind = "Plasma Stability 240 min hum"
readout_number = 77

[[record]]
mol = "CNC(=O)[C@H]1CCC(=O)N(C)CC(=O)N2C[C@@H](NC(=O)Cc3ccc4ccccc4c3)C[C@H]2COc2ccc(F)cc2C(=O)N1C"
readout_kind = "Plasma Stability 240 min hum"
readout_number = 100

[[record]]
mol = "CN(C)CC(=O)N[C@@H]1C[C@H]2COc3cccc(c3)C(=O)N(C)C[C@H](NC(=O)Cc3ccc4ccccc4c3)C(=O)N(C)CC(=O)N2C1"
readout_kind = "Plasma Stability 240 min hum"
readout_number = 100


Shifting focus to the molecule that follows.
Quick one: Plasma Stability 240 min hum of "CCCCCCCCCC(=O)N[C@H]1C[C@H]2COc3ccc(F)cc3C(=O)N(C)[C@H](C(=O)NCc3ccc4ccccc4c3)CCC(=O)N(C)CC(=O)N2C1" ?
65

---

Assay: Metabolic stability, CD-1 mouse microsomes
Format: in vitro ADME
Conditions: % of the initial 0 minutes value at 60 min, 10 μM, 37° C.
Tag: True if measured Metabolic Stability 60 min mouse is not below 90%, False if it is.

Say whether CCCCCCCCCC(=O)N[C@H]1CN(C)C(=O)c2cccc(c2)OC[C@@H]2C[C@H](NC(=O)Cc3c[nH]c4ccccc34)CN2C(=O)CN(C)C1=O [Ex. 213] shows Metabolic Stability 60 min mouse of 90% or more.
False

Say whether CN1CC(=O)N2C[C@@H](NC(=O)CCC(=O)O)C[C@H]2COc2ccc(F)cc2C(=O)N(C)[C@@H](C(=O)NCc2ccc3ccccc3c2)CCC1=O [Ex. 95] shows Metabolic Stability 60 min mouse of 90% or more.
True

Say whether CN1CCC[C@H](NC(=O)OCc2ccccc2)C(=O)N2C[C@@H](NC(=O)Cc3ccc4ccccc4c3)C[C@H]2COc2cccc(c2)C1=O [Ex. 184] shows Metabolic Stability 60 min mouse of 90% or more.
False

Say whether CN1CC(=O)N2C[C@@H](NC(=O)OC(C)(C)C)C[C@H]2COc2ccc(F)cc2C(=O)N(C)[C@H](C(=O)NCCc2c[nH]c3ccccc23)CCC1=O [Ex. 30] shows Metabolic Stability 60 min mouse of 90% or more.
False

Say whether CN1CC(=O)N2C[C@H](NC(=O)CCc3ccncc3)C[C@H]2COc2ccc(cc2)C(=O)N(C)[C@H](C(=O)NCc2ccc3ccccc3c2)CCC1=O [Ex. 260] shows Metabolic Stability 60 min mouse of 90% or more.
False

Say whether CC(=O)N[C@H]1CN(C)C(=O)c2cccc(c2)OC[C@@H]2C[C@H](NC(=O)CN(C)C)CN2C(=O)CN(C)C1=O [Ex. 208] shows Metabolic Stability 60 min mouse of 90% or more.
True
